# tested-target: 5-lipoxygenase (Rattus norvegicus)
# Construct: The cell-free homogenate was prepared by sonication of the cells followed by centrifugation at 40,000 xg; endogenous in cells; host or cells: RBL-1 (rat basophilic leukemia) cells, 40,000 xg supernatant of the sonicated homogenate
# assay-name: Inhibition of 5-lipoxygenase in a cell-free homogenate of RBL-1 cells (production of lipoxygenase products from 14C-arachidonic acid)
# Type: biochemical
# run-conditions: 3 μM; rat RBL-1 40,000 xg supernatant
Parameter threshold = 40%. Response is 1.0 when inhibition at 3 µM meets or exceeds it, else 0.0.

molecule=COc1ccccc1/C=C/C(=O)N(C)O category=1.0
molecule=CN(O)C(=O)/C=C/c1ccc(Cl)c(O)c1 category=0.0
molecule=COc1ccccc1/C=C\C(=O)N(C)O category=1.0
molecule="CN(O)C(=O)/C=C/c1ccc(F)cc1 [Example 1, 4-Fluoro-N-methylcinnamohydroxamic acid]" category=0.0
molecule=CN(O)C(=O)/C=C/c1ccc2c(c1)OCCO2 category=1.0
molecule="COc1ccc(/C=C/C(=O)NO)cc1OC [Example 6, 3,4-Dimethoxycinnamohydroxamic acid]" category=0.0
molecule=COc1cc(/C=C/C(=O)N(C)O)cc(OC)c1 category=1.0
molecule=CN(O)C(=O)/C=C/c1ccc(Cl)c([N+](=O)[O-])c1 category=0.0
molecule=CN(O)C(=O)/C=C/c1cc(C(C)(C)C)c(O)c(C(C)(C)C)c1 category=1.0

====

# tested-target: 5-lipoxygenase (Rattus norvegicus, UniProt P12527)
# Construct: The cell-free homogenate was prepared by sonication of the cells followed by centrifugation at 40,000 xg; endogenous in cells
# assay-name: Inhibition of 5-lipoxygenase in a cell-free homogenate of RBL-1 cells (production of lipoxygenase products from 14C-arachidonic acid)
# run-conditions: rat RBL-1 40,000 xg supernatant, 50% inhibition of lipoxygenase product generation
pIC50: −log10 of the molar value.
Reported pIC50 is given for each of the following compounds.
endpoint: pIC50

compound="COc1ccc(/C=C/C(=O)N(C)O)c(OC)c1 [Example 20]" numeric_readout=6.37
compound="Cc1ccc(/C=C/C(=O)N(C)O)cc1 [Example 7, N,4-Dimethylcinnamohydroxamic acid]" numeric_readout=6.26
compound="COc1ccc(/C=C/C(=O)N(C)O)cc1 [Example 25]" numeric_readout=5.89
compound="COc1ccc(/C=C/C(=O)N(C)O)cc1OC [Example 4]" numeric_readout=6.22

====

inhibition in vivo at 15 mg/kg: recorded values
# Tested on: Arachidonate Induced Bronchospasm
# assay-name: Pulmonary mechanics assay: inhibition of arachidonate induced bronchospasm in anesthetized guinea pigs
# Format: in vivo, guinea pig (male Hartley)
# run-conditions: Cavia porcellus; with indomethacin (10 mg/kg, i.v.); dose 15 mg/kg IV; guinea pig; % inhibition of control; read-out: Bronchodilating Activity, % Inhibition of Arachidonate Induced Bronchospasm, with Indomethacin
endpoint: inhibition in vivo at 15 mg/kg (%)

compound="Cc1ccc(/C=C/C(=O)N(C)O)cc1 [Example 7, N,4-Dimethylcinnamohydroxamic acid]" readout_units=% numeric_readout=89
compound=CN(O)C(=O)/C=C/c1cc(C(C)(C)C)c(O)c(C(C)(C)C)c1 readout_units=% numeric_readout=89
compound="CN(O)C(=O)/C=C/c1ccc(Cl)cc1 [Example 26, 4-Chloro-N--methylcinnamohydroxamic acid]" readout_units=% numeric_readout=70

====

# tested-target: 5-lipoxygenase (Rattus norvegicus, UniProt P12527)
# Construct: The cell-free homogenate was prepared by sonication of the cells followed by centrifugation at 40,000 xg; endogenous in cells; host or cells: RBL-1 (rat basophilic leukemia) cells, 40,000 xg supernatant of the sonicated homogenate
# Sequence (P12527 1-673): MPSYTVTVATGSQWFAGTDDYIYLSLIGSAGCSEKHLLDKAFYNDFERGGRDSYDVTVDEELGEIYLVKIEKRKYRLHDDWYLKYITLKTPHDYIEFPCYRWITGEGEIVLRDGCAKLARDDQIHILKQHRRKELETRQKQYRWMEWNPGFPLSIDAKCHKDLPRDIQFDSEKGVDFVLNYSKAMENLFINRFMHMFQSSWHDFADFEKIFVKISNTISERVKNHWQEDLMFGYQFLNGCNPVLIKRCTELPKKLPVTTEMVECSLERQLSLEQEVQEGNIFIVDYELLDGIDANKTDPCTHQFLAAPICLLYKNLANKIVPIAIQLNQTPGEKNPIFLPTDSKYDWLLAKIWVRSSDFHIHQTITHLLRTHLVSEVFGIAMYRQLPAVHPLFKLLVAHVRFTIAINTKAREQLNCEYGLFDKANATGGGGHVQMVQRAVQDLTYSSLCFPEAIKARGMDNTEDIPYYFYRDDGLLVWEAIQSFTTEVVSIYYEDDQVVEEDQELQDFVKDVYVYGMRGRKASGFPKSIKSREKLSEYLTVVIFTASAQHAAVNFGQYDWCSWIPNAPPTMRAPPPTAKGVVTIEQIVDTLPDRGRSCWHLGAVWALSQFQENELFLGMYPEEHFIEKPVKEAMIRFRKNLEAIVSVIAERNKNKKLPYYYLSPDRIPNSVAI
# assay-name: Inhibition of 5-lipoxygenase in a cell-free homogenate of RBL-1 cells (production of lipoxygenase products from 14C-arachidonic acid)
# Assay type: biochemical
# run-conditions: 3 μM; rat RBL-1 40,000 xg supernatant
Recorded inhibition at 3 µM by entry
endpoint: inhibition at 3 µM (%)

compound="COc1ccc(/C=C/C(=O)N(C)O)c(OC)c1 [Example 20]" numeric_readout=100
compound="CN(O)C(=O)/C=C/c1ccc(Cl)c(Cl)c1 [Example 16]" numeric_readout=87
compound="CN(O)C(=O)/C=C/c1ccc(Cl)cc1Cl [Example 14]" numeric_readout=88
compound="COc1ccc(OC)c(/C=C/C(=O)N(C)O)c1 [Example 2]" numeric_readout=53
compound="COc1cc(/C=C/C(=O)N(C)O)cc(OC)c1OC [Example 3]" numeric_readout=91
compound="CN(O)C(=O)/C=C/c1ccccc1 [Example 17, N--Methylcinnamohydroxamic acid]" numeric_readout=50
compound="CN(O)C(=O)/C=C/c1c(Cl)cccc1Cl [Example 15]" numeric_readout=24
compound="COc1cc(/C=C/C(=O)N(C)O)cc(OC)c1O [Example 10]" numeric_readout=17
compound="COc1ccc(/C=C/C(=O)N(C)O)cc1OC [Example 4]" numeric_readout=89
compound="COc1cccc(/C=C/C(=O)N(C)O)c1 [Example 24]" numeric_readout=54
compound="CN(O)C(=O)/C=C/c1ccc2c(c1)OCO2 [Example 12]" numeric_readout=53
compound="COc1cccc(/C=C/C(=O)N(C)O)c1OC [Example 19]" numeric_readout=44

====

# System: Arachidonate Induced Bronchospasm
# assay-name: Pulmonary mechanics assay: inhibition of arachidonate induced bronchospasm in anesthetized guinea pigs
# Format: in vivo, guinea pig (male Hartley)
# run-conditions: Cavia porcellus; with indomethacin (10 mg/kg, i.v.); dose 15 mg/kg IV; guinea pig; % inhibition of control; read-out: Bronchodilating Activity, % Inhibition of Arachidonate Induced Bronchospasm, with Indomethacin
endpoint: inhibition in vivo at 15 mg/kg (%)

test_smiles=CN(O)C(=O)/C=C/c1ccc(Cl)c(Cl)c1 tested_target="Arachidonate Induced Bronchospasm" readout_units=% numeric_readout=86
test_smiles=COc1ccccc1/C=C/C(=O)N(C)O tested_target="Arachidonate Induced Bronchospasm" readout_units=% numeric_readout=73
test_smiles=COc1ccc(/C=C/C(=O)N(C)O)cc1OC tested_target="Arachidonate Induced Bronchospasm" readout_units=% numeric_readout=90
test_smiles=CN(O)C(=O)/C=C/c1ccc2c(c1)OCO2 tested_target="Arachidonate Induced Bronchospasm" readout_units=% numeric_readout=58
test_smiles=COc1cc(/C=C/C(=O)N(C)O)cc(OC)c1OC tested_target="Arachidonate Induced Bronchospasm" readout_units=% numeric_readout=89
test_smiles=COc1cccc(/C=C/C(=O)N(C)O)c1 tested_target="Arachidonate Induced Bronchospasm" readout_units=% numeric_readout=66
test_smiles=COc1cccc(/C=C/C(=O)N(C)O)c1OC tested_target="Arachidonate Induced Bronchospasm" readout_units=% numeric_readout=70
test_smiles=COc1ccc(/C=C/C(=O)N(C)O)cc1 tested_target="Arachidonate Induced Bronchospasm" readout_units=% numeric_readout=29
test_smiles=COc1ccccc1/C=C\C(=O)N(C)O tested_target="Arachidonate Induced Bronchospasm" readout_units=% numeric_readout=36
test_smiles=COc1cc(/C=C/C(=O)N(C)O)cc(OC)c1 tested_target="Arachidonate Induced Bronchospasm" readout_units=% numeric_readout=78
test_smiles=COc1ccc(OC)c(/C=C/C(=O)N(C)O)c1 tested_target="Arachidonate Induced Bronchospasm" readout_units=% numeric_readout=49

These entries and their values trace back to patent US4820828A.
